From: ChEMBL document CHEMBL1275590

assay_comment: Drug level in Swiss Webster mouse liver at 70 mg/kg, po after 2 hrs by HPLC/UV analysis
condition: read-out: Drug uptake
parameter: concentration at 2 h (µM)
# value in µM; strip the unit string

Task item: Supply measured concentration at 2 h of CC(C)Oc1cc(NC(=N)c2ccccn2)ccc1-c1ccc(-c2ccc(NC(=N)c3ccccn3)cc2OC(C)C)o1 in your reply.
Reply: 45.8

###

assay_comment: Volume of distribution in Swiss Webster mouse at 66 mg/kg, po by HPLC-MS/MS analysis
Type: ADME, organism-based
Design: dose 66 mg/kg, route oral
condition: Swiss Webster, in vivo
parameter: Tmax (min)
Express your answer in min, writing the number without its unit.

Task item: Tell us which Tmax value is on record for CC(C)Oc1cc(NC(=N)c2ccccn2)ccc1-c1ccc(-c2ccc(NC(=N)c3ccccn3)cc2OC(C)C)o1
Reply: 4.98

###

assay_comment: Half life in Swiss Webster mouse at 70 mg/kg, po by HPLC-MS/MS analysis
Assay type: ADME, organism-based
Set-up: dose 70 mg/kg, route oral
condition: in vivo
parameter: half-life (h)
Report only the number, with the unit h understood.

Task item: Please report the measured half-life for CC(C)Oc1cc(NC(=N)c2ccccn2)ccc1-c1ccc(-c2ccc(NC(=N)c3ccccn3)cc2OC(C)C)o1
Reply: 48

###

assay_comment: Half life in Swiss Webster mouse at 66 mg/kg, po by HPLC-MS/MS analysis
Assay type: ADME, organism-based
Parameters: dose 66 mg/kg, route oral
condition: in vivo
parameter: half-life
// return the numeric value with its unit appended

Task item: Let me know recorded half-life for CCOc1cc(NC(=N)c2ccccn2)ccc1-c1ccc(-c2ccc(NC(=N)c3ccccn3)cc2OCC)o1 , thanks.
Reply: 30 h

###

half-life: recorded values
assay_comment: Half life in golden Syrian hamster liver microsomes by HPLC-MS/MS analysis in presence of 0.1 uM NADPH
Assay type: ADME, Mesocricetus auratus, Microsome
Write the number in min without appending the unit.

{"columns": ["structure_string", "result_units", "half-life"],
 "data": [
  ["CCOc1cc(NC(=N)c2ccccn2)ccc1-c1ccc(-c2ccc(NC(=N)c3ccccn3)cc2OCC)o1", "min", 75]
]}

# next compound below
Task item: Please list half-life recorded for the compound CC(C)Oc1cc(NC(=N)c2ccccn2)ccc1-c1ccc(-c2ccc(NC(=N)c3ccccn3)cc2OC(C)C)o1
Reply: 39

###

assay_comment: Cmax in Swiss Webster mouse at 5 mg/kg, iv by HPLC-MS/MS analysis
Format: ADME, organism-based
Set-up: dose 5 mg/kg, route intravenous
condition: in vivo
parameter: Cmax (µM)
Provide the reading as a plain figure in µM.

Task item: Provide one value: measured Cmax of CC(C)Oc1cc(NC(=N)c2ccccn2)ccc1-c1ccc(-c2ccc(NC(=N)c3ccccn3)cc2OC(C)C)o1
Reply: 10.4

###

Tested on: Mus musculus
assay_comment: Renal toxicity in BALB/c mouse assessed as phosphorus level in serum at 30 mg/kg/day, iv administered for five days (Rvb= 6.1 mg/dl)
Assay type: organism-based
Design: route intravenous
condition: in vivo
parameter: Activity (mg/dL)
Field: numeric (mg/dL). Do not append units.

Task item: Look up and state reported Activity for CC(C)Oc1cc(NC(=N)c2ccccn2)ccc1-c1ccc(-c2ccc(NC(=N)c3ccccn3)cc2OC(C)C)o1
Reply: 7.6

###

assay_comment: Half life in golden Syrian hamster liver microsome by HPLC-MS/MS analysis in presence of 10 uM NADPH
Format: ADME, Mesocricetus auratus
condition: liver microsomes
parameter: half-life

{"columns": ["structure_string", "parameter", "value_observed"],
 "data": [
  ["CCOc1cc(NC(=N)c2ccccn2)ccc1-c1ccc(-c2ccc(NC(=N)c3ccccn3)cc2OCC)o1", "half-life", "> 2 h"]
]}

Task item: Give me measured half-life, please, for this molecule: CC(C)Oc1cc(NC(=N)c2ccccn2)ccc1-c1ccc(-c2ccc(NC(=N)c3ccccn3)cc2OC(C)C)o1
Reply: > 2 h

###

assay_comment: Oral bioavailability in Swiss Webster mouse at 131 mg/kg by HPLC-MS/MS analysis
Format: ADME, organism-based
condition: in vivo
parameter: bioavailability

Task item: Indicate its recorded bioavailability; the compound in question is CCOc1cc(NC(=N)c2ccccn2)ccc1-c1ccc(-c2ccc(NC(=N)c3ccccn3)cc2OCC)o1
Reply: 25%

###

assay_comment: Cmax in Swiss Webster mouse at 131 mg/kg, po by HPLC-MS/MS analysis
Type: ADME, organism-based
Design: dose 131 mg/kg, route oral
condition: in vivo
parameter: Cmax (nM)
Response body: numeric value in nM, unit text excluded.

Task item: State its Cmax: CCOc1cc(NC(=N)c2ccccn2)ccc1-c1ccc(-c2ccc(NC(=N)c3ccccn3)cc2OCC)o1
Reply: 1680

###

assay_comment: Drug level in Swiss Webster mouse liver at 5 mg/kg, iv after 2 hrs by HPLC/UV analysis
condition: read-out: Drug uptake
parameter: concentration at 2 h (µM)
Give the value, in units of µM, as a plain number.

Task item: State its concentration at 2 h: CC(C)Oc1cc(NC(=N)c2ccccn2)ccc1-c1ccc(-c2ccc(NC(=N)c3ccccn3)cc2OC(C)C)o1
Reply: 18.7

###

assay_comment: Drug level in Swiss Webster mouse kidney at 70 mg/kg, po after 2 hrs by HPLC/UV analysis
condition: read-out: Drug uptake
parameter: concentration at 2 h (µM)
All answers are understood in µM, so give the number only.

Task item: Using the record for CC(C)Oc1cc(NC(=N)c2ccccn2)ccc1-c1ccc(-c2ccc(NC(=N)c3ccccn3)cc2OC(C)C)o1 , state its measured concentration at 2 h.
Reply: 30.3

###

assay_comment: Cmax in Swiss Webster mouse at 4.9 mg/kg, iv by HPLC-MS/MS analysis
Assay type: ADME, organism-based
Set-up: dose 4.9 mg/kg, route intravenous
condition: in vivo
parameter: Cmax (µM)
Return type: number; implicit unit µM.

Task item: Identify measured Cmax associated with CCOc1cc(NC(=N)c2ccccn2)ccc1-c1ccc(-c2ccc(NC(=N)c3ccccn3)cc2OCC)o1
Reply: 4.24

###

assay_comment: Half life in Swiss Webster mouse at 1 mg/kg, iv by HPLC-MS/MS analysis
Format: ADME, organism-based
Design: dose 1 mg/kg, route intravenous
condition: in vivo
parameter: half-life (min)
Please reply with the bare figure in min and do not write the unit itself.

Task item: Retrieve half-life measured for CCOc1cc(NC(=N)c2ccccn2)ccc1-c1ccc(-c2ccc(NC(=N)c3ccccn3)cc2OCC)o1 and print it.
Reply: 1020

###

Tested on: Mus musculus
assay_comment: Renal toxicity in BALB/c mouse assessed as blood urea nitrogen level in serum at 5 mg/kg/day, iv administered for five days (Rvb= 20 mg/dl)
Type: organism-based
Set-up: route intravenous
condition: in vivo
The entries below are paired with their reported Activity.
The answer is to be given in mg/dL; state only the numeric part.

{"columns": ["structure_string", "Activity [mg/dL]"],
 "data": [
  ["CC(C)Oc1cc(NC(=N)c2ccccn2)ccc1-c1ccc(-c2ccc(NC(=N)c3ccccn3)cc2OC(C)C)o1", 19]
]}

Task item: Determine reported Activity for CCOc1cc(NC(=N)c2ccccn2)ccc1-c1ccc(-c2ccc(NC(=N)c3ccccn3)cc2OCC)o1 ; test system: Mus musculus.
Reply: 18

###

assay_comment: Clearance in Swiss Webster mouse at 1 mg/kg, iv by HPLC-MS/MS analysis
Type: ADME, organism-based
Set-up: dose 1 mg/kg, route intravenous
condition: in vivo
parameter: clearance (mL/min/kg)
Use mL/min/kg as the unit, but write only the number.

Task item: Entry CC(C)Oc1cc(NC(=N)c2ccccn2)ccc1-c1ccc(-c2ccc(NC(=N)c3ccccn3)cc2OC(C)C)o1 needs its clearance filled in; supply it.
Reply: 9.9

Task item: Return reported clearance. Input molecule: CCOc1cc(NC(=N)c2ccccn2)ccc1-c1ccc(-c2ccc(NC(=N)c3ccccn3)cc2OCC)o1
Reply: 45

###

assay_comment: Half life in Swiss Webster mouse at 4.9 mg/kg, iv by HPLC-MS/MS analysis
Format: ADME, organism-based
Set-up: dose 4.9 mg/kg, route intravenous
condition: in vivo
parameter: half-life
A bare number is not enough; add the unit after it.

Task item: Query half-life for CCOc1cc(NC(=N)c2ccccn2)ccc1-c1ccc(-c2ccc(NC(=N)c3ccccn3)cc2OCC)o1
Reply: 18 h

###

half-life values, listed per item
assay_comment: Half life in human liver microsome by HPLC-MS/MS analysis in presence of 1 uM NADPH
Format: ADME
condition: liver microsomes

{"columns": ["structure_string", "half-life"],
 "data": [
  ["CC(C)Oc1cc(NC(=N)c2ccccn2)ccc1-c1ccc(-c2ccc(NC(=N)c3ccccn3)cc2OC(C)C)o1", "> 2 h"]
]}

Okay, now this molecule:
Task item: For the molecule CCOc1cc(NC(=N)c2ccccn2)ccc1-c1ccc(-c2ccc(NC(=N)c3ccccn3)cc2OCC)o1 , report half-life.
Reply: > 2 h

###

assay_comment: Tmax in Swiss Webster mouse at 1 mg/kg, iv by HPLC-MS/MS analysis
Assay type: ADME, organism-based
Set-up: dose 1 mg/kg, route intravenous
condition: in vivo
parameter: Tmax (min)
Return type: number; implicit unit min.

Task item: For the molecule CCOc1cc(NC(=N)c2ccccn2)ccc1-c1ccc(-c2ccc(NC(=N)c3ccccn3)cc2OCC)o1 , give its reported Tmax.
Reply: 5
